Values were extracted from patent US20220153851A1.

Target: T1, cynoCSF1R ECD-Fc (cynomolgus)
T1 construct: also called cynomolgus CSF1R ECD
T1 sequence (chain, as listed by the source): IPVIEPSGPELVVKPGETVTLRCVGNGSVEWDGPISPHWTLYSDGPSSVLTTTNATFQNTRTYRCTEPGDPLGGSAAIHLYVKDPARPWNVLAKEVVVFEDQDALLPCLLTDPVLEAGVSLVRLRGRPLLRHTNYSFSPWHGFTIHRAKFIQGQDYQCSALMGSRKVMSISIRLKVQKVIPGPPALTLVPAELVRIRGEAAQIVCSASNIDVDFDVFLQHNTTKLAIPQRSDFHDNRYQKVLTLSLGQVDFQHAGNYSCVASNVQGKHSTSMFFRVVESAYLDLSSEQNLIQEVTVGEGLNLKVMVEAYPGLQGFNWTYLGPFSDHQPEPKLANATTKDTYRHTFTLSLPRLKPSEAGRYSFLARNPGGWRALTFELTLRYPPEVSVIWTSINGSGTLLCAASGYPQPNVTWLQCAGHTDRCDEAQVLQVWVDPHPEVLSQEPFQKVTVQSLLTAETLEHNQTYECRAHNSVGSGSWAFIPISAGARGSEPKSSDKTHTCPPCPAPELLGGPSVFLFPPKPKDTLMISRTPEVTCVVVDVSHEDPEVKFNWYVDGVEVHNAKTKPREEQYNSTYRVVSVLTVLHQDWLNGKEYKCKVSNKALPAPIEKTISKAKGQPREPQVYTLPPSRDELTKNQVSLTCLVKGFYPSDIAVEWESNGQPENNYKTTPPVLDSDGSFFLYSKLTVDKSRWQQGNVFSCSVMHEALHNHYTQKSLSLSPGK
Test: competition ELISA, blocking of human CSF1 binding to cynoCSF1R ECD-Fc
With a cut-off of 0.03 µg/mL, any IC50 strictly below it is called Satisfied; any IC50 meeting it or above is called Not satisfied.

h0311-L1H1 (antibody, human IgG4 S228P, kappa, V domains shown, also called Ab14; huAb 0311-L1H1) VH: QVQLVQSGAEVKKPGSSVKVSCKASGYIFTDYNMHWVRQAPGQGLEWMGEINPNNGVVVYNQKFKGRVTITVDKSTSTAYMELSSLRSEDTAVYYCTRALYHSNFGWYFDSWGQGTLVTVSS VL: DIVLTQSPATLSLSPGERATLSCKASQSVDYDGDSHMNWYQQKPGQAPRLLIYTASNLESGIPARFSGSGSGADFTLTISSLEPEDFAVYYCQQGNEDPWTFGQGTKVEIKR    Satisfied
h0311-L0H1 (antibody, human IgG4 S228P, kappa, V domains shown, also called Ab13; huAb 0311-L0H1) VH: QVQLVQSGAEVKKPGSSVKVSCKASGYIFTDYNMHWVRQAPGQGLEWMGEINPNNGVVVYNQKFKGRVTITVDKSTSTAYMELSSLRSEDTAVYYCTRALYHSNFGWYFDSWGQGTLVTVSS VL: EIVLTQSPATLSLSPGERATLSCKASQSVDYDGDSHMNWYQQKPGQAPRLLIYTASNLESGIPARFSGSGSGTDFTLTISSLEPEDFAVYYCQQGNEDPWTFGQGTKVEIKR    Not satisfied
h0311-L0H2 (antibody, human IgG4 S228P, kappa, V domains shown, also called Ab15; huAb 0311-L0H2) VH: QVQLVQSGAEVKKPGSSVKVSCKASGYIFTDYNMHWVRQAPGQGLEWMGEINPNNGVVVYNQKFKGTTTLTVDKSTSTAYMELSSLRSEDTAVYYCTRALYHSNFGWYFDSWGQGTLVTVSS VL: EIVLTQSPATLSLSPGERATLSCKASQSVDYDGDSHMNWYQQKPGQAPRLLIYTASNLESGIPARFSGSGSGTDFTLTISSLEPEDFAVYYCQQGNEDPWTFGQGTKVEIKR    Satisfied

Ask: Below 0.03 µg/mL on IC50? Entry cAb 0311 (antibody, human IgG4 S228P, kappa, V domains shown) VH: EIQLQQSGPDLMKPGASVKMSCKASGYIFTDYNMHWVKQNQGKSLEWMGEINPNNGVVVYNQKFKGTTTLTVDKSSSTAYMDLHSLTSEDSAVYYCTRALYHSNFGWYFDSWGKGTTLTVSS VL: DIVLTQSPASLAVSLGQRATISCKASQSVDYDGDSHMNWYQQKPGQPPKLLIYTASNLESGIPARFSGSGSGADFTLTIHPVEEEDAATYYCQQGNEDPWTFGGGTRLEIKR
Result: Not satisfied
